Molecular target: Glutamate NMDA receptor
Assay: Compound was evaluated for the inhibition of [3H]CGS-19,755 binding to NMDA receptor from rat brain synaptic membrane.
quantityKind: pIC50
To interpret pIC50, take it as minus log10 of a concentration measured in moles per litre.

Lookup: I am curious: what pIC50 value has been reported for CN[C@H](CC(=O)O)C(=O)O ?
Found: 5.26

Lookup: Suppose we examine the molecule C=C[C@H]1[C@H](C(=O)O)[C@@H]1[C@H](N)C(=O)O ; what pIC50 value has been reported?
Found: 5.92

Lookup: Item N[C@H](C(=O)O)[C@@H]1C[C@@H]1C(=O)O has what recorded pIC50?
Found: 8.28

Lookup: Consider the molecule shown here: N[C@H](C(=O)O)[C@@H]1[C@@H](COCc2ccccc2)[C@@H]1C(=O)O What is its recorded pIC50?
Found: 4.68

Lookup: Need pIC50 of CC[C@H]1[C@H](C(=O)O)[C@@H]1[C@H](N)C(=O)O , thanks.
Found: 5.70

Lookup: # input molecule: COC[C@H]1[C@H](C(=O)O)[C@@H]1[C@H](N)C(=O)O ; wanted: its pIC50
Found: 4.30

* * *

Molecular target: Glutamate receptor ionotropic, AMPA (Rattus norvegicus, UniProt P19490+P19491+P19492+P19493)
Please go through the items and note down their pIC50.
pIC50 here: minus log base 10 of the concentration, concentration in moles per litre.

Lookup: Return reported pIC50; argument: COC[C@H]1[C@H](C(=O)O)[C@@H]1[C@H](N)C(=O)O
Found: 5.40

Lookup: Need pIC50 of C=C1C[C@@H]([C@H](N)C(=O)O)[C@@H](C(=O)O)C1 , thanks.
Found: 5.12

Lookup: Give its pIC50 value. Item: C=C[C@H]1[C@H](C(=O)O)[C@@H]1[C@H](N)C(=O)O
Found: 5.40

Lookup: Name the reported pIC50 value associated with the compound CC[C@H]1[C@H](C(=O)O)[C@@H]1[C@H](N)C(=O)O
Found: 5.70
